- Test system: SW620
- Assay overview: CCK-8 proliferation, SW620
- Type: cell-based
- Experimental parameters: Homo sapiens, SW-620; CCK-8; 96 hours; read-out: Inhibitory activity (IC50) on tumor cell proliferation, SW620
# reported IC50; entries follow

Reference set, count: 5
Would you mind telling me what IC50 value was observed for CC1(C)CCC(c2ccc(Cl)cc2)=C(CN2CCN(c3ccc(C(=O)NS(=O)(=O)c4ccc(N[C@H](CCN5CCN(Cc6ccc(C7CCC(=O)NC7=O)c(F)c6)CC5)CSc5ccccc5)c(S(=O)(=O)C(F)(F)F)c4)cc3)CC2)C1 (some centres unmarked) ? 1 to 10 nM

Would you mind telling me what IC50 value was observed for CC1(C)CCC(c2ccc(Cl)cc2)=C(CN2CCN(c3ccc(C(=O)NS(=O)(=O)c4ccc(N[C@H](CCN5CCN(Cc6cccc(N7CCC(=O)NC7=O)c6)CC5)CSc5ccccc5)c(S(=O)(=O)C(F)(F)F)c4)cc3)CC2)C1 ? 100 to 500 nM

Would you mind telling me what IC50 value was observed for CC1(C)CCC(c2ccc(Cl)cc2)=C(CN2CCN(c3ccc(C(=O)NS(=O)(=O)c4ccc(N[C@H](CCN5CCOCC5)CSc5ccccc5)c(S(=O)(=O)C(F)(F)F)c4)cc3)CC2)C1 [ABT-263, Navitoclax, reference compound] ? 500 to 1000 nM

Would you mind telling me what IC50 value was observed for CCC(=C(c1ccc(O)cc1)c1ccc(N2CCN(Cc3ccc(C4CCC(=O)NC4=O)c(F)c3)CC2)cc1)c1ccc(O)cc1 (centres unmarked) ? < 1 nM

Would you mind telling me what IC50 value was observed for Cc1ccc(-c2c(C)noc2C)cc1N(CC1CCN(Cc2ccc(C3CCC(=O)NC3=O)c(F)c2)CC1)c1ccc(C2(C#N)CC2)cc1 (centres unmarked) ? 100 to 500 nM

Next:
Would you mind telling me what IC50 value was observed for CNC(=O)c1ccccc1Nc1cc(Nc2ccc(N3CCC(N(C)Cc4ccc(C5CCC(=O)NC5=O)c(F)c4)CC3)cc2OC)ncc1C(F)(F)F (centres unmarked) ? 100 to 500 nM

Would you mind telling me what IC50 value was observed for CNC(=O)c1ccccc1Nc1cc(Nc2cc(C)c(N3CCC(N(C)Cc4ccc(C5CCC(=O)NC5=O)cc4)CC3)cc2OC(C)C)ncc1C(F)(F)F (centres unmarked) ? 100 to 500 nM

---

# reported IC50; entries follow
- Tested on: H1975
- Assay overview: CCK-8 proliferation, NCI-H1975 (H1975)
- Format: cell-based, Human
- Experimental parameters: Homo sapiens, NCI-H1975; CCK-8; 96 hours; read-out: Inhibitory activity (IC50) on tumor cell proliferation, H1975

Reference set, count: 3
Would you mind telling me what IC50 value was observed for O=C1CCN(c2ccc(CN3C[C@H]4C[C@@H]3CN4c3ccc(-c4cc(F)c5c(c4)C(=O)N(C(C(=O)Nc4nccs4)c4ncn6c4CCC6)C5)cc3)cc2)C(=O)N1 (stereo partly drawn) [GT-06177] ? 1 to 10 nM

Would you mind telling me what IC50 value was observed for COc1cc(N2CCN(Cc3ccc(N4CCC(=O)NC4=O)nc3)CC2)c(C)cc1Nc1ncc(Br)c(Nc2ccc3nccnc3c2P(C)(C)=O)n1 [GT-05947] ? 100 to 500 nM

Would you mind telling me what IC50 value was observed for CN(Cc1cncc(N2CCC(=O)NC2=O)c1)C1CCN(c2ccc(-c3cc(F)c4c(c3)C(=O)N(C(C(=O)Nc3nccs3)c3ncn5c3CCC5)C4)cc2)CC1 (stereo not drawn) [GT-07384] ? 1 to 10 nM

Next:
Would you mind telling me what IC50 value was observed for Cc1nc2c(F)cc(-c3nc(Nc4ccc(N5CCC(N6CCN(Cc7ccc(N8CCC(=O)NC8=O)cc7)CC6)CC5)cn4)ncc3F)cc2n1C(C)C [GT-06739] ? 100 to 500 nM

Would you mind telling me what IC50 value was observed for O=C1CCC(Nc2cccc(CN3C[C@H]4C[C@@H]3CN4c3ccc(-c4cc(F)c5c(c4)C(=O)N(C(C(=O)Nc4nccs4)c4ncn6c4CCC6)C5)cc3)c2)C(=O)N1 (stereo partly drawn) [GT-06179] ? 10 to 50 nM

Would you mind telling me what IC50 value was observed for Cc1nc2c(F)cc(-c3nc(Nc4ccc(N5CCC(N6CCN(Cc7cncc(N8CCC(=O)NC8=O)c7)CC6)CC5)cn4)ncc3F)cc2n1C(C)C [GT-07488] ? 100 to 500 nM

---

- Test system: THP-1
- Assay overview: CCK-8 proliferation, THP-1
- Assay type: cell-based
- Experimental parameters: Homo sapiens, 72 hours, read-out: Inhibitory activity (IC50) on tumor cell proliferation, THP-1
# reported IC50; entries follow

Would you mind telling me what IC50 value was observed for C[C@]12CC[C@H](O)CC1=CC[C@@H]1[C@@H]2CC[C@]2(C)C(c3cccnc3)=CC[C@@H]12 ? > 10000 nM

Would you mind telling me what IC50 value was observed for CC1(C)CCC(c2ccc(Cl)cc2)=C(CN2CCN(c3ccc(C(=O)NS(=O)(=O)c4ccc(N[C@H](CCN5CCN(Cc6cccc(N7CCC(=O)NC7=O)c6)CC5)CSc5ccccc5)c(S(=O)(=O)C(F)(F)F)c4)cc3)CC2)C1 ? 10 to 50 nM

Would you mind telling me what IC50 value was observed for CC1(C)CCC(c2ccc(Cl)cc2)=C(CN2CCN(c3ccc(C(=O)NS(=O)(=O)c4ccc(N[C@H](CCN5CCN(Cc6ccc(C7CCC(=O)NC7=O)cc6)CC5)CSc5ccccc5)c(S(=O)(=O)C(F)(F)F)c4)cc3)CC2)C1 (stereo partly shown) ? 1 to 10 nM

--- query ---
Would you mind telling me what IC50 value was observed for CC1(C)CCC(c2ccc(Cl)cc2)=C(CN2CCN(c3ccc(C(=O)NS(=O)(=O)c4ccc(N[C@H](CCN5CCN(Cc6ccc(C7CCC(=O)NC7=O)c(F)c6)CC5)CSc5ccccc5)c(S(=O)(=O)C(F)(F)F)c4)cc3)CC2)C1 (stereo partly shown) ? 10 to 50 nM

---

- Tested on: SR
- Assay overview: CCK-8 proliferation, SR
- Type: cell-based, Human
- Experimental parameters: Homo sapiens; Table B10, compounds designed based on the IRAK4 inhibitors; SR cells; read-out: Inhibitory activity (IC50, nM) on tumor cell proliferation, SR
Result type: IC50

Missing value: IC50, SR, entry O=C1CCC(c2ccc(CN3CCN(c4ccc5c(c4)nc(NC(=O)c4cccc(C(F)(F)F)c4)n5C4CCC(CO)CC4)CC3)cc2)C(=O)N1 (stereo not drawn) . Fill in? 100 to 500 nM

Missing value: IC50, SR, entry O=C1CCN(c2ccc(CN3CCC(N4CCN(c5ccc6c(c5)nc(NC(=O)c5cccc(C(F)(F)F)c5)n6[C@H]5CC[C@@H](CO)CC5)CC4)CC3)nc2)C(=O)N1 . Fill in? 500 to 1000 nM

Missing value: IC50, SR, entry O=C1CCC(c2ccc(CN3CCN(Cc4ccc5c(c4)nc(NC(=O)c4cccc(C(F)(F)F)c4)n5[C@H]4CC[C@@H](CO)CC4)CC3)cc2)C(=O)N1 (stereo partly drawn) . Fill in? 100 to 500 nM

Next:
Missing value: IC50, SR, entry O=C1CCC(Nc2cccc(CN3CCN(c4ccc(-n5cc(NC(=O)c6coc(-c7ccnc(NCC8CC8)c7)n6)c(C(F)F)n5)cc4)CC3)c2)C(=O)N1 (stereo not drawn) . Fill in? 100 to 500 nM

Missing value: IC50, SR, entry O=C1CCC(c2ccc(CN3CCC(N4CCN(c5ccc6c(c5)nc(NC(=O)c5cccc(C(F)(F)F)c5)n6[C@H]5CC[C@@H](CO)CC5)CC4)CC3)cc2)C(=O)N1 (stereo partly drawn) . Fill in? 500 to 1000 nM

Missing value: IC50, SR, entry O=C1CCC(c2ccc(CN3CCN(c4ccc(-n5cc(NC(=O)c6coc(-c7ccnc(NCC(F)(F)F)c7)n6)c(C(F)F)n5)cc4)CC3)cc2)C(=O)N1 (stereo not drawn) . Fill in? 50 to 100 nM

---

# reported inhibition at 2 µM; entries follow
- Target under test: human Cereblon WT GST-tagged protein (Homo sapiens, UniProt Q96SW2)
- Construct: purchased CISBIO 64BDCRBNPEH
- Sequence (Q96SW2 whole entry): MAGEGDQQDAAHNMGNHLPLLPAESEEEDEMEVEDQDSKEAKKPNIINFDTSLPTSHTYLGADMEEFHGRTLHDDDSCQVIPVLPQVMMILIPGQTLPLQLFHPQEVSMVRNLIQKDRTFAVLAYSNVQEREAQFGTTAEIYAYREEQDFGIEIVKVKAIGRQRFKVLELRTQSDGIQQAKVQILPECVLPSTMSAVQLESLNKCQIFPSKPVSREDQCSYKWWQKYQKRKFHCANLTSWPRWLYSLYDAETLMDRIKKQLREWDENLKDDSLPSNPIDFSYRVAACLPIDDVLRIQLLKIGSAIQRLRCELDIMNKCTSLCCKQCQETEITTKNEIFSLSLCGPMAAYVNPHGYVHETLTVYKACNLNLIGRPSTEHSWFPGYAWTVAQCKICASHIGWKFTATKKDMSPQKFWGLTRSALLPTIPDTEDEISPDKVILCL
- Assay overview: CRBN binding, HTRF (CEREBLON BINDING kit)
- Experimental parameters: Table II-2, CRBN binding screening, HTRF; at 2 µM; read-out: Inhibition rate (%) at 2 µM
- Procedure: The CEREBLON BINDING kits (specification: 10,000 tests; product number: Catalog # 64BDCRBNPEH; CISBIO company) was used to determine the CRBN binding ability of the compounds to be tested through a HTRF method (homogeneous time-resolved fluorescence). […] After sealing and incubating the solutions in the aforementioned wells at room temperature for 3 hours, the […] at emission wavelengths of 620 nm and 665 nm were detected by the HTRF method using a Spark microplate reader (V3.1 SP1).

Reference set, count: 4
Would you mind telling me what inhibition at 2 µM value was observed for Cn1cc(-c2cc(S(C)(=O)=O)ccc2OCc2ccc(C3CCC(=O)NC3=O)c(F)c2)c2cc[nH]c2c1=O (stereo not drawn) ? 80 to 100%

Would you mind telling me what inhibition at 2 µM value was observed for C[C@@H]1CNC(=O)c2cc3ccc(C(=O)Nc4cnn(Cc5ccc(N6CCN(Cc7ccc(C8CCC(=O)NC8=O)cc7)CC6)cc5)c4)nc3n21 (stereo partly drawn) ? 80 to 100%

Would you mind telling me what inhibition at 2 µM value was observed for CN(c1nccnc1CNc1nc(Nc2ccc(N3CCN(Cc4ccc(C5CCC(=O)NC5=O)cc4)CC3)cc2)ncc1C(F)(F)F)S(C)(=O)=O (stereo not drawn) ? 60 to 80%

Would you mind telling me what inhibition at 2 µM value was observed for CN(C)C(=O)c1cc2cnc(Nc3ccc(N4CCN(Cc5cc(C6CCC(=O)NC6=O)cnc5F)CC4)cn3)nc2n1C1CCCC1 (stereo not drawn) ? 60 to 80%

Next:
Would you mind telling me what inhibition at 2 µM value was observed for O=C1CCN(c2cnc(CN3C[C@H]4C[C@@H]3CN4c3ccc(-c4cc(F)c5c(c4)C(=O)N(C(C(=O)Nc4nccs4)c4ncn6c4CCC6)C5)cc3)cn2)C(=O)N1 (stereo partly drawn) ? 53 to 60%

Would you mind telling me what inhibition at 2 µM value was observed for Cc1nc2c(F)cc(-c3nc(Nc4ccc(N5CCC(N6CCN(Cc7cncc(N8CCC(=O)NC8=O)c7)CC6)CC5)cn4)ncc3F)cc2n1C(C)C ? 80 to 100%
